Tgt: Olfr691 (Mus musculus, UniProt Q8VGW5)
Construct: Lucy (N); expressed in transfected cells; host or cells: HEK293T, co-transfected with RTP1S
Sequence (Q8VGW5 1-322): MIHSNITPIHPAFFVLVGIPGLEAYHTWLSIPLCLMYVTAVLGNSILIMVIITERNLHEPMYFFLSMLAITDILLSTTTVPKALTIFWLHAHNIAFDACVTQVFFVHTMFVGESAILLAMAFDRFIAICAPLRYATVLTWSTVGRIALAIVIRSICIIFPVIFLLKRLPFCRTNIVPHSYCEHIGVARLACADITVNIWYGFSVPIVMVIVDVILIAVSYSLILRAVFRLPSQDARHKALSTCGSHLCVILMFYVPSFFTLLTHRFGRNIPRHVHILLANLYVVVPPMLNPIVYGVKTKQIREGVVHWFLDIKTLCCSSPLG
Experiment description: dual-luciferase (cAMP/CREB reporter) ligand screen, Olfr691 in HEK293T cells
Type: cell-based
Study conditions: chemicals tested individually, screened at 500uM (* also at 100uM)
Result type: Olfr691 response in dual-luciferase assay

Recorded results for 5 molecules are shown here.
{"Molecule": "CC(C)CCO [3-methyl-1-butanol]", "Reading": "-"}
{"Molecule": "CCCCCCC(=O)O [heptanoate]", "Reading": "+"}
{"Molecule": "CC(O)C(C)O (stereo not shown) [2,3-butanediol]", "Reading": "-"}
{"Molecule": "CCCCC/C=C/CO [trans-2-octen-1-ol]", "Reading": "-"}
{"Molecule": "CC(C)C(=O)O [isobutyrate]", "Reading": "+"}

Task: Look at this molecule and give its reported Olfr691 response in dual-luciferase assay. CCCCCC(=O)CC [3-octanone]
Result: -

Task: Tell me the measured Olfr691 response in dual-luciferase assay of COc1ccccc1 [Anisole] , please.
Result: -

====

Tgt: Olfr691 (Mus musculus, UniProt Q8VGW5)
Construct: Lucy (N); expressed in transfected cells; host or cells: HEK293T, co-transfected with RTP1S
Experiment description: dual-luciferase (cAMP/CREB reporter) ligand screen, Olfr691 in HEK293T cells
Format: cell-based
Study conditions: HEK-293T, 4 h; 0.5 mM ligand; normalized to the response of Olfr691 to the strongest ligand, 4-pentenoate
Result type: Relative response (% of 4-pentenoate response) at 500 µM (%)
Use % as the unit, but write only the number.

// solved cases for Relative response (% of 4-pentenoate response) at 500 µM follow
{"Compound": "CC(C)CCC(=O)O [isocaproate]", "Tgt": "Olfr691 (Mus musculus, UniProt Q8VGW5)", "Reading": 37}
{"Compound": "CC(C)C(=O)O [isobutyrate]", "Tgt": "Olfr691 (Mus musculus, UniProt Q8VGW5)", "Reading": 97}
{"Compound": "O=C(O)c1ccccc1 [benzoate]", "Tgt": "Olfr691 (Mus musculus, UniProt Q8VGW5)", "Reading": 34}
{"Compound": "CCCCC(CC)C(=O)O (stereo not drawn) [2-ethylhexanoate]", "Tgt": "Olfr691 (Mus musculus, UniProt Q8VGW5)", "Reading": 76}
{"Compound": "C/C=C/C(=O)O", "Tgt": "Olfr691 (Mus musculus, UniProt Q8VGW5)", "Reading": 39}

Next compound, Relative response (% of 4-pentenoate response) at 500 µM to be filled in.
Task: Request: Relative response (% of 4-pentenoate response) at 500 µM, test system Olfr691 (Mus musculus, UniProt Q8VGW5), entry CCCC(CCC)C(=O)O [valproate, reference compound]
Result: 98

====

Tested on: Olfr99
Experiment description: dual-luciferase (cAMP/CREB reporter) ligand screen, Olfr99 in HEK293T cells
Format: cell-based, mouse
Design: key: ‘+’ or ‘–‘ in each column indicates if the olfactory receptor responded or had no effect to that specific chemical; -: ‘+’ or ‘–‘ in each column indicates if the olfactory receptor responded or had no effect to that specific chemical
Study conditions: chemicals tested individually, screened at 500uM (* also at 100uM)
Result type: Olfr99 response in dual-luciferase assay

{"Molecule": "O=C(O)CCC(=O)O [Succinate]", "Olfr99 response in dual-luciferase assay": "-"}
{"Molecule": "CCCCCOC(=O)CCCCC [Amylhexanoate]", "Olfr99 response in dual-luciferase assay": "-"}
{"Molecule": "CC(C)C=O [Isobutyraldehyde]", "Olfr99 response in dual-luciferase assay": "-"}
{"Molecule": "C[N+](C)(C)[O-] [Trimethylamine N-oxide]", "Olfr99 response in dual-luciferase assay": "-"}
{"Molecule": "CC(C)CCO [3-methyl-1-butanol]", "Olfr99 response in dual-luciferase assay": "-"}

Task: Quick one: Olfr99 response in dual-luciferase assay for C=CC(C)(O)CCC=C(C)CCC=C(C)C (mixture of isomers) [nerolidol] ?
Result: -

Task: // query Olfr99 response in dual-luciferase assay value for entry CCC(=O)O [propionate]
Result: -
